Test system: CCRF-CEM leukemia
Experiment: NCI tumour cell line growth inhibition, 48 h
VALUE_TYPE: TGI

As a guide, the following entries are already answered.
- COMPOUND: "CCCCCCNC(=O)CCC(NC(=O)c1ccc(N(C)Cc2cnc3nc(N)nc(N)c3n2)cc1)C(=O)NCCCCCC (stereo not given)"
  VALUE_TYPE: "TGI"
  REPORTED: "> 100 µM"
- COMPOUND: "COP(=O)(OC)C(NC(=O)C(F)(F)F)(c1ccccc1)C(F)(F)F (stereo not given)"
  VALUE_TYPE: "TGI"
  REPORTED: "> 100 µM"
- COMPOUND: "COc1cc(CNc2cnc3cc(N)ccc3n2)cc(OC)c1OC"
  VALUE_TYPE: "TGI"
  REPORTED: "> 100 µM"
- COMPOUND: "Cc1ccc(-c2c3c(nn2-c2ccc(S(N)(=O)=O)cc2)-c2ccccc2C3)cc1"
  VALUE_TYPE: "TGI"
  REPORTED: "> 100 µM"
- COMPOUND: "CC(C)(C)c1ccc(OC(=O)Nc2ccc(O)c(C(=O)O)c2)cc1"
  VALUE_TYPE: "TGI"
  REPORTED: "> 100 µM"
- COMPOUND: "CCOC(=O)C[n+]1cccc(C2(c3cc4ccccc4[nH]3)OCCO2)c1"
  VALUE_TYPE: "TGI"
  REPORTED: "> 100 µM"
- COMPOUND: "CC1=CC(=O)C(C(C)C)=CC1=Nc1cc(Br)c(O)c(Br)c1"
  VALUE_TYPE: "TGI"
  REPORTED: "18.1 µM"
- COMPOUND: "COc1cc(C2SC(C)C(=O)N2c2ccc(-c3csc(NS(=O)(=O)c4ccc(Cl)c(OC)c4)n3)cc2)ccc1O (stereo not given)"
  VALUE_TYPE: "TGI"
  REPORTED: "> 100 µM"
- COMPOUND: "Fc1ccc(N=C/C=C/Nc2ccc(F)cc2)cc1"
  VALUE_TYPE: "TGI"
  REPORTED: "> 51.3 µM"

Turning now to a further compound:
INPUT: Item under review: CCOC(=O)c1cc(I)c(-c2cc(C)no2)n1C . Reported TGI?
OUTPUT: > 100 µM

----------
Test system: SR leukemia
Test: NCI tumour cell line growth inhibition, 48 h; in the data active = GI50 below about 0.43 µM; inactive = the rest
Classes to choose from: Y = active, N = inactive

These solved cases illustrate the format of a correct answer.
- MOLECULE: "COc1ccc(/C=c2\\sc3n(c2=O)C2C(NN=3)N(C)C(=O)N2C)cc1 (stereo not given)"
  CAT: "Y"
- MOLECULE: "CCCCCCNC(=O)Oc1ccc(/C(=C(/C)Cc2ccc(OC)cc2)c2ccc(OCCCN(C)C)cc2)cc1"
  CAT: "N"
- MOLECULE: "CN(Cc1cccc(F)c1)c1ccc(CO)c(Cl)c1"
  CAT: "N"
- MOLECULE: "N[C@@H]1C(=O)N2C(C(=O)OC(c3ccccc3)c3ccccc3)=C(CCl)CS[C@H]12"
  CAT: "N"
- MOLECULE: "O=[N+]([O-])c1ccc(Oc2nc(Nc3ccc(O[C@H]4CO[C@H]5[C@@H]4OC[C@@H]5O)c(Cl)c3)ncc2F)c(Cl)c1"
  CAT: "N"

INPUT: Which outcome was assigned to COc1cc(-c2cc(-c3ccc(Nc4ccnc5cc(Cl)ccc45)cc3)nc(N3CCOCC3)n2)cc(OC)c1OC in this test?
OUTPUT: N

INPUT: Which outcome was assigned to Cc1ccc(-c2c3c(nn2-c2ccc(S(N)(=O)=O)cc2)-c2ccccc2C3)cc1 in this test?
OUTPUT: N

INPUT: Which outcome was assigned to CC(=O)c1c(CN(C)c2ccccc2)n([O-])c2ccccc2[n+]1=O in this test?
OUTPUT: N

INPUT: Which outcome was assigned to FC(F)(F)c1ccc(-c2cnc(-n3cc(COCCN4CCCCC4)nn3)nc2NC2CCCCCC2)cc1 in this test?
OUTPUT: N

INPUT: Which outcome was assigned to CCC(c1ccc(OC)cc1)C(CC)c1ccc(O)c(CN2CCN(C)CC2)c1 (stereo not given) in this test?
OUTPUT: N

INPUT: Which outcome was assigned to Cc1cc2cc3ccc(N(C)C)cc3nc2cc1N in this test?
OUTPUT: N

----------
Tested on: SF-295 CNS
Assay: NCI tumour cell line growth inhibition, 48 h
Provide the reported GI50 of each item.

- COMPOUND: "COC1=C(C)C(=O)c2c(c(CCCl)c3n2CCC3O)C1=O (stereo unspecified)"
  TARGET_SYSTEM: "SF-295 CNS"
  GI50: "0.237 µM"

Record GI50 per entry; entries follow.
1. Nc1nc(N)c(C=Nc2ccc(Br)cc2)c(Nc2ccc(Br)cc2)n1
2. Cc1cc(Nc2nc(-c3cccnc3)nc3ccccc23)n[nH]1
3. O=[N+]([O-])c1ccc(Oc2nc(Nc3ccc(O[C@H]4CO[C@H]5[C@@H]4OC[C@@H]5O)c(Cl)c3)ncc2F)c(Cl)c1

OUTPUT:
1. 11.3 µM
2. 2.72 µM
3. 1.39 µM

Record GI50 per entry; entries follow.
1. N#Cc1c(Br)n(C2OC(CO)C(O)C2O)c2ncnc(N)c12 (stereo unspecified)
2. Oc1ccc(O)c(-c2cc(-c3ccc(Cl)cc3)nn2-c2ccccc2)c1

OUTPUT:
1. 2.07 µM
2. 20 µM

----------
Tested on: T-47D breast
Assay: NCI tumour cell line growth inhibition, 48 h
VALUE_TYPE: TGI

Record TGI per entry; entries follow.
1. C(/Cc1ccc2c(c1)OCO2)=N\NC1=NCCN1
2. CCCC(O)c1cn(C(NC(=O)c2ccccc2)P(=O)(OCC)OCC)nn1 (stereo unspecified)
3. COC(=O)CCc1ccc2c(c1)C(=O)CC2

OUTPUT:
1: > 100 µM; 2: > 100 µM; 3: > 100 µM

Record TGI per entry; entries follow.
1. CC(=O)OCc1cncn1S(=O)(=O)c1ccc(C)cc1
2. CSc1cc(-c2ccccn2)nc(-c2ccccn2)c1

OUTPUT:
1: > 100 µM; 2: 17.6 µM

----------
Tested on: UACC-62 melanoma
Assay: NCI tumour cell line growth inhibition, 48 h
Provide the reported TGI of each item.

- COMPOUND: "N#Cc1c(Br)n(C2OC(CO)C(O)C2O)c2ncnc(N)c12 (stereo not given)"
  TGI: "6.09 µM"

Record TGI per entry; entries follow.
1. CCCCCc1nnc(NS(=O)(=O)c2ccc(NC(=O)OCC(C)C)cc2)s1
2. COc1cc2cc(C(=O)N3CC(CCl)c4c3cc(NC(=O)OCc3ccc([N+](=O)[O-])cc3)c3ccccc43)[nH]c2c(OC)c1OC (stereo not given)
3. CCOc1ccc2c(c1)[n+]([O-])c(-c1ccc(Br)cc1)c(N)[n+]2[O-]
4. O=C(CCCCCCCCC(=O)N1C(=O)CC(=O)N(c2ccccc2)C1=S)N1C(=O)CC(=O)N(c2ccccc2)C1=S
5. O=C(NCCO)c1ccc([N+](=O)[O-])cc1
6. COc1cc(-c2cc(-c3ccc(Nc4ccnc5cc(Cl)ccc45)cc3)nc(N3CCOCC3)n2)cc(OC)c1OC

OUTPUT:
> 100 µM
> 100 µM
> 100 µM
> 100 µM
> 100 µM
3.83 µM

----------
Provide the reported TGI of each item.
Test system: NCI-H522 lung
Experiment: NCI tumour cell line growth inhibition, 48 h

- COMPOUND: "O=C1C2=C(c3ccccc31)C(c1ccccc1)N1C(=O)CSC1=N2 (centres undefined)"
  VALUE_TYPE: "TGI"
  REPORTED: "> 79.8 µM"
- COMPOUND: "CN(CCO)CCCC1COc2ccccc2O1 (centres undefined)"
  VALUE_TYPE: "TGI"
  REPORTED: "> 100 µM"
- COMPOUND: "COC1CC(OC2C(C)OC(OC3C(C)OC(OC4C(O)CC(O[C@H]5CC[C@@]6(C)C(=CC[C@]7(O)[C@@H]6C[C@@H](OC(C)=O)[C@@]6(C)[C@]7(O)CC[C@@]6(O)C(C)=O)C5)OC4C)CC3OC)CC2OC)OC(C)C1O (some centres undefined)"
  VALUE_TYPE: "TGI"
  REPORTED: "> 12.5 µM"
- COMPOUND: "CS(=O)(=O)NNS(=O)(=O)c1ccccc1"
  VALUE_TYPE: "TGI"
  REPORTED: "> 100 µM"

Record TGI per entry; entries follow.
1. CCOC(=O)c1sc2nc(SC)nc3c2c1NCN3c1ccc(F)c(F)c1
2. Fc1ccc(N=C/C=C/Nc2ccc(F)cc2)cc1
3. O=C(CCCCCC(=O)N1CC(CCl)c2ccc([N+](=O)[O-])cc21)N1CC(CCl)c2ccc([N+](=O)[O-])cc21 (centres undefined)
4. CCCCCc1nnc(NS(=O)(=O)c2ccc(NC(=O)OCC(C)C)cc2)s1
5. Nc1ccccc1.[C-]#[O+].[C-]#[O+].[C-]#[O+].[C-]#[O+].[C-]#[O+].[Cr]

OUTPUT:
1: > 100 µM; 2: 27.6 µM; 3: > 100 µM; 4: 79 µM; 5: > 10 µM
